molecular target: UniProtKB Q9H0K1; experiment: SIK2 Enzymatic Assay High Version 2 (High ATP); assay type: biochemical; settings: enzyme 6 nM, 6 mM ATP and 400 μM HDAC5tide (each 2× final concentration); 30 minutes pre-incubation, 2 hours; ADP-Glo Max luminescence; read-out: SIK2 high ATP IC50 (μM) (Test Example 2)
Sequence (Q9H0K1 whole entry, species assumed): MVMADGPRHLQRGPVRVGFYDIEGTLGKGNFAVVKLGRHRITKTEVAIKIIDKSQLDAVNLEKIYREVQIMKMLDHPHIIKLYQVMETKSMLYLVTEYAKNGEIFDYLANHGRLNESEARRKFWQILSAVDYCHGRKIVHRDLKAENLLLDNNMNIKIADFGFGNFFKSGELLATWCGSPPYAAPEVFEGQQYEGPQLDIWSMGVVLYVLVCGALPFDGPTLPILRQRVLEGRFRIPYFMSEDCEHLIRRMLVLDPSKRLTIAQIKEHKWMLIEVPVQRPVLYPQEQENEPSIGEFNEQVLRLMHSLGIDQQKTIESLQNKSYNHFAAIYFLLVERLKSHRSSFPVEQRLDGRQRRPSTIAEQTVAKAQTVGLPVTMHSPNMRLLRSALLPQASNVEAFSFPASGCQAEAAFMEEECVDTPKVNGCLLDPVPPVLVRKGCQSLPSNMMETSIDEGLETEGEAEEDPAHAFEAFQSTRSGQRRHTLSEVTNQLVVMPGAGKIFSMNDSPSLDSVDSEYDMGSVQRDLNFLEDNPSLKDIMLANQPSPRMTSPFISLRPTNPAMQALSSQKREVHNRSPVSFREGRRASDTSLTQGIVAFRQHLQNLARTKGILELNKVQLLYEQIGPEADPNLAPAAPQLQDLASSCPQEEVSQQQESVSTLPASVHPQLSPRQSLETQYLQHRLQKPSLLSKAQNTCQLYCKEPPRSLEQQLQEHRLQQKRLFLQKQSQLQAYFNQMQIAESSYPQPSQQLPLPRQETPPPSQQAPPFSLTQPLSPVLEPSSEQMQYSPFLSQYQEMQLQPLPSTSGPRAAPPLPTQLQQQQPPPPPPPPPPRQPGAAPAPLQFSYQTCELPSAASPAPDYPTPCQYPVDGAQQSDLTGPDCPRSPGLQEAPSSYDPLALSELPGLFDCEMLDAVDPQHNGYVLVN
observation-type: IC50 (µM)
One number for each entry, in µM.

compound | IC50 / µM
Cc1cc(Nc2cc3cc(-c4cc(O[C@H](C)C#N)ncc4O[C@H]4CC[C@H](O)CC4)ccn3n2)nc(C)n1 (relative stereo) [Example 721] | 0.0261
Cc1cc(-c2ccn3nc(Nc4cc(C)nc(C)n4)cc3c2)c(OCC2(C#N)COC2)cn1 [Example 275] | 0.0313

Fill in: IC50 of Cc1cc(-c2ccn3nc(NC(=O)C4CC4)cc3c2)c(OC[C@@]2(C)CCN2C)cn1 (single isomer, unassigned) [Example 604] is ___
0.203

src = patent US20240158392A1
